Test system: SF-295 CNS
Assay: NCI-60 one-dose screen, 48 h (100 = growth as untreated, 0 = no growth, -100 = all killed)
Settings: 10 µM unless noted
About 83,000 compounds went through this panel and 20% of them were active in at least one assay; those are over-represented in the sample as a whole.
compounds and their reported growth
The response must be a number in % with no trailing unit.

Guide cases for growth, answers given:
compound	value-observed
Cc1ccc2nc(-c3ccc(-n4on4-c4ccc(/C=C/c5ccc(-n6on6-c6ccc(-c7nc8ccc(C)cc8s7)cc6)cc5S(=O)(=O)O)c(S(=O)(=O)O)c4)cc3)sc2c1	110
CC(NCCC(c1ccccc1)c1ccccc1)c1ccccc1 (centres undefined)	62.2
O=C(O)c1ccc(-n2cc(/C=N/Nc3ccc(F)cc3)c(-c3cccc(C(F)(F)F)c3)n2)cc1	54

Pending compound:
Identify the measured growth of COc1ccc(-c2nn(-c3ccc(NC(=O)Nc4ccc(Cl)c(C(F)(F)F)c4)cc3)cc2-c2ccncc2)cc1Cl for SF-295 CNS.
-25.9
